Items are presented alongside their recorded inhibition at 1 µM.
- Tested on: ATF4
- assay procedure: ATF4 expression inhibition assay (ATF4 5'UTR luciferase reporter, Tg-stressed HEK293T cells)
- Type: cell-based, human
- conditions used: Homo sapiens, HEK-293T, 3 h, 1 μM test compound, 100 nM thapsigargin, 3 hours, HEK293T ATF4 luciferase reporter; read-out: % ATF4 inhibition at 1 μM
- Protocol: The ATF4 reporter was prepared by fusing the human full length 5′UTR of ATF4 (NCBI Accession No. BC022088.2) upstream of the firefly luciferase coding sequence lacking the initiator methionine. […] Luciferase reactions were performed using Luciferase Assay System (Promega #E1501) as specified by the manufacturer. Luminescence was read with an integration time of 1 s and a gain of 110 using a Cytation-5 multi-mode microplate reader (BioTek). […]
Respond numerically; units are % and should not be typed.

Example compounds with recorded inhibition at 1 µM:
O=C(COc1ccc(Cl)c(F)c1)NN1CCC(NC(=O)c2ccc3cc(Cl)ccc3n2)CC1 [Compound 3]: 92.2
O=C(NN1CCN(C[C@@H](O)COc2ccc(Cl)c(F)c2)CC1)c1cc2cc(Cl)ccc2o1 [Compound 48]: 97.4
O=C(NN1CCN(C[C@@H](O)COc2ccc(Cl)c(F)c2)CC1)c1ccc(Cl)cc1 [Compound 63]: 84.6

Look at this compound and give its reported inhibition at 1 µM. O=C(NC1CCN(NCC(O)COc2ccc(Cl)c(F)c2)CC1)C1Cc2cc(Cl)ccc2O1 (centres unmarked) [Compound 70]
21.4

Look at this compound and give its reported inhibition at 1 µM. O=C(NN1CCN(C[C@@H](O)COc2ccc(Cl)c(F)c2)CC1)c1ccc2cc(Cl)ccc2n1 [Compound 58]
97.6

Look at this compound and give its reported inhibition at 1 µM. O=C(NN1CCN(C[C@H](O)COc2ccc(Cl)c(F)c2)CC1)c1cc2cc(Cl)ccc2o1 [Compound 49]
100

Look at this compound and give its reported inhibition at 1 µM. O=C(NN1CCN(C[C@@H](O)COc2ccc(Cl)c(F)c2)CC1)c1ccc(OC(F)(F)F)cc1 [Compound 62]
88.8

Look at this compound and give its reported inhibition at 1 µM. O=C(COc1ccc(Cl)c(F)c1)NC1CCN(NC(=O)COc2ccc(Cl)c(F)c2)CC1 [Compound 4]
94.7

====

- Tested on: Chinese hamster ovary (CHO) cells
- assay procedure: Protein translation assay (puromycin labelling, CHO cells)
- Type: cell-based
- conditions used: CHO cells stressed with 300 nM Tg, 100 nM compound; media alone = 100%, Tg alone = 0%
quantity measured: % Recovery of protein expression (100 nM test compound) (%)
Respond numerically; units are % and should not be typed.

Example molecules with recorded % Recovery of protein expression (100 nM test compound):
O=C(COc1ccc(Cl)c(F)c1)NN1CCC(NC(=O)c2cc3cc(Cl)ccc3o2)CC1: −7.1
O=C(COc1ccc(Cl)c(F)c1)NN1CCC(NC(=O)c2ccc3cc(Cl)ccc3n2)CC1: 81.6
O=C(COc1ccc(Cl)c(F)c1)NC1CCN(NC(=O)c2ccc3cc(Cl)ccc3n2)CC1: 88.6

Look at this molecule and give its reported % Recovery of protein expression (100 nM test compound). O=C(COc1ccc(Cl)c(F)c1)NN1CCN(CC(O)COc2ccc(Cl)c(F)c2)CC1 (stereo not drawn)
16.7

Look at this molecule and give its reported % Recovery of protein expression (100 nM test compound). O=C(COc1ccc(Cl)c(F)c1)NC1CCN(NC(=O)COc2ccc(Cl)c(F)c2)CC1
83.5

Look at this molecule and give its reported % Recovery of protein expression (100 nM test compound). O=C(COc1ccc(Cl)c(F)c1)NC1CCN(NC(=O)c2cc3cc(Cl)ccc3o2)CC1
40.2

====

Items are presented alongside their recorded inhibition at 0.1 µM.
- System: ATF4
- assay procedure: ATF4 expression inhibition assay (ATF4 5'UTR luciferase reporter, Tg-stressed HEK293T cells)
- Format: cell-based, human
- conditions used: Homo sapiens, HEK-293T, 3 h, read-out: % ATF4 inhibition at 100 nM
Respond numerically; units are % and should not be typed.

O=C(NN1CCN(CC(O)COc2ccc(C(F)(F)F)cc2)CC1)c1ccc2cc(Cl)ccc2n1 (centres unmarked): 83.4

Look at this compound and give its reported inhibition at 0.1 µM. O=C(NN1CCN(CC(O)COc2ccc(Cl)c(F)c2)CC1)c1cc2cc(Cl)ccc2o1 (centres unmarked)
87.3

Look at this compound and give its reported inhibition at 0.1 µM. O=C(NN1CCC(NC[C@H](O)COc2ccc(Cl)c(F)c2)CC1)c1cc2cc(Cl)ccc2o1
58.1

Look at this compound and give its reported inhibition at 0.1 µM. O=C(COc1ccc(Cl)c(F)c1)NN1CCC(NCCOc2ccc(Cl)c(F)c2)CC1
87.5

====

- Tested on: ATF4
- assay procedure: ATF4 expression inhibition assay (ATF4 5'UTR luciferase reporter, Tg-stressed HEK293T cells)
- Format: cell-based, human
- conditions used: Homo sapiens, HEK-293T, 3 h, 100 nM test compound, 100 nM thapsigargin, 3 hours, HEK293T ATF4 luciferase reporter; read-out: % ATF4 inhibition at 100 nM
quantity measured: inhibition at 0.1 µM
Answer format reminder: number followed by unit.

Example compounds with recorded inhibition at 0.1 µM:
O=C(NN1CCN(C[C@@H](O)COc2ccc(Cl)c(F)c2)CC1)c1cc2cc(Cl)ccc2o1: 96.5%
O=C(NN1CCN(C[C@@H](O)COc2ccc(Cl)c(F)c2)CC1)c1ccc(C(F)(F)F)cn1: 22.6%
O=C(COc1ccc(Cl)c(F)c1)NN1CCC(NC(=O)C2Cc3cc(Cl)ccc3O2)CC1 (centres unmarked): 69.4%
O=C(NN1CCN(C[C@@H](O)COc2ccc(Cl)c(F)c2)CC1)c1ccc2cc(Cl)ccc2n1: 86.5%
O=C(COc1ccc(Cl)c(F)c1)NN1CCC(NC(=O)c2cc3cc(Cl)ccc3o2)CC1: 85.7%

Look at this compound and give its reported inhibition at 0.1 µM. O=C(NN1CCN(C[C@H](O)COc2ccc(Cl)c(F)c2)CC1)c1ccc2cc(Cl)ccc2n1
38.8%

Look at this compound and give its reported inhibition at 0.1 µM. O=C(COc1ccc(Cl)c(F)c1)NN1CCC(NC(=O)c2nc3cc(Cl)ccc3s2)CC1
68.2%

Look at this compound and give its reported inhibition at 0.1 µM. O=C(NN1CCN(C[C@H](O)COc2ccc(Cl)c(F)c2)CC1)c1ccc2cc(Cl)ccc2c1
72.4%

====

Items are presented alongside their recorded inhibition at 0.1 µM.
- System: ATF4
- assay procedure: ATF4 expression inhibition assay (ATF4 5'UTR luciferase reporter, Tg-stressed HEK293T cells)
- Type: cell-based, human
- conditions used: Homo sapiens, HEK-293T, 3 h, 100 nM test compound, 100 nM thapsigargin, 3 hours, HEK293T ATF4 luciferase reporter; read-out: % ATF4 inhibition at 100 nM

O=C(NC1CCN(NCC(O)COc2ccc(Cl)c(F)c2)CC1)C1Cc2cc(Cl)ccc2O1 (stereo not shown): 0.4%
O=C(COc1ccc(Cl)c(F)c1)NC1CCN(NC(=O)[C@H]2CNc3cc(Cl)ccc3O2)CC1: 100%
N#Cc1ccc(C(=O)NN2CCN(C[C@@H](O)COc3ccc(Cl)c(F)c3)CC2)nc1: 3.6%

Look at this molecule and give its reported inhibition at 0.1 µM. O=C(NN1CCN(C[C@@H](O)COc2ccc(Cl)c(F)c2)CC1)c1ccc2cc(Cl)ccc2c1
92.6%

Look at this molecule and give its reported inhibition at 0.1 µM. O=C(COc1ccc(Cl)c(F)c1)NC1CCN(NC(=O)c2ccc3cc(Cl)ccc3n2)CC1
93.7%

Look at this molecule and give its reported inhibition at 0.1 µM. O=C(COc1ccc(Cl)c(F)c1)NC1CCN(NCC(O)COc2ccc(Cl)c(F)c2)CC1 (stereo not shown)
16.1%

Look at this molecule and give its reported inhibition at 0.1 µM. O=C(NC1CCN(NCC(O)COc2ccc(Cl)c(F)c2)CC1)c1ccc2cc(Cl)ccc2n1 (stereo not shown)
8.1%

Look at this molecule and give its reported inhibition at 0.1 µM. O=C(COc1ccc(Cl)c(F)c1)NC1CCN(NC(=O)COc2ccc(Cl)c(F)c2)CC1
93.2%

Look at this molecule and give its reported inhibition at 0.1 µM. O=C(NN1CCC(NC[C@H](O)COc2ccc(Cl)c(F)c2)CC1)c1ccc2cc(Cl)ccc2n1
25.9%

Look at this molecule and give its reported inhibition at 0.1 µM. O=C(COc1ccc(Cl)c(F)c1)NN1CCN(C[C@H](O)COc2ccc(Cl)c(F)c2)CC1 (single isomer, unassigned)
79.3%

Look at this molecule and give its reported inhibition at 0.1 µM. O=C(NN1CCC(NC[C@@H](O)COc2ccc(Cl)c(F)c2)CC1)c1ccc(Cl)cn1
9%

Look at this molecule and give its reported inhibition at 0.1 µM. O=C(COc1ccc(Cl)c(F)c1)NC1CCN(NC(=O)c2nc3cc(Cl)ccc3s2)CC1
77.1%

Look at this molecule and give its reported inhibition at 0.1 µM. O=C(COc1ccc(Cl)c(F)c1)NN1CCN(CC(O)COc2ccc(Cl)c(F)c2)CC1 (stereo not shown)
75.9%

Look at this molecule and give its reported inhibition at 0.1 µM. O=C(COc1ccc(Cl)c(F)c1)NC1CCN(NC(=O)c2cc3cc(Cl)ccc3o2)CC1
87.1%

Look at this molecule and give its reported inhibition at 0.1 µM. O=C(NN1CCN(C[C@@H](O)COc2ccc(Cl)c(F)c2)CC1)c1ccc(OC(F)(F)F)cc1
85.9%

Look at this molecule and give its reported inhibition at 0.1 µM. O=C(NN1CCC(NC[C@@H](O)COc2ccc(Cl)c(F)c2)CC1)c1ccc2cc(Cl)ccc2n1
63.4%
